# System: CD8+ T cells
# Test method notes: IFNγ ELISPOT, ZIKV-infected Ifnar-/- HLA-B*0702 transgenic mice
# Format: cell-based, mouse
# Conditions: HLA-B*0702 mice, 7 days after 1×10^2 FFU ZIKV MR766
Experimental endpoint: SFC/10^6 CD8+ T cells, MR766

[[record]]
sequence_text = "FPDSNSPINI (FPDSNSPIM) [FSS/MR-NS3309-317]"
experimental_endpoint = "SFC/10^6 CD8+ T cells, MR766"
endpoint_value = "565 SFC/10^6 CD8+ T cells"

[[record]]
sequence_text = "TPLARGTL [FSS/MR-NS2A148-155]"
experimental_endpoint = "SFC/10^6 CD8+ T cells, MR766"
endpoint_value = "1055 SFC/10^6 CD8+ T cells"

[[record]]
sequence_text = "VPRTDNITL [FSS-NS2A133-141]"
experimental_endpoint = "SFC/10^6 CD8+ T cells, MR766"
endpoint_value = "1182 SFC/10^6 CD8+ T cells"

[[record]]
sequence_text = "TPRESMLLAL [FSS/MR-NS2A89-99]"
experimental_endpoint = "SFC/10^6 CD8+ T cells, MR766"
endpoint_value = "823 SFC/10^6 CD8+ T cells"

[[record]]
sequence_text = "RPASAWAIYA [FSS/MR-NS4B35-44]"
experimental_endpoint = "SFC/10^6 CD8+ T cells, MR766"
endpoint_value = "180 SFC/10^6 CD8+ T cells"

[[record]]
sequence_text = "TPNSPRAEA [FSS/MR-E170-178]"
experimental_endpoint = "SFC/10^6 CD8+ T cells, MR766"
endpoint_value = "155 SFC/10^6 CD8+ T cells"

[[record]]
sequence_text = "IPYLGKREDL [FSS/MR-NS5587-596]"
experimental_endpoint = "SFC/10^6 CD8+ T cells, MR766"
endpoint_value = "438 SFC/10^6 CD8+ T cells"


---

# System: CD8+ T cells
# Test method notes: IFNγ ELISPOT, ZIKV-infected Ifnar-/- HLA-B*0702 transgenic mice
# Format: cell-based, mouse
# Conditions: HLA-B*0702 mice, 7 days after 1×10^2 FFU ZIKV MR766
Experimental endpoint: SFC/10^6 CD8+ T cells, MR766 (SFC/10^6 CD8+ T cells)

[[record]]
sequence_text = "APTQGSASSL [FSS/MR-NS561-70]"
endpoint_value = 98

[[record]]
sequence_text = "AAGKRGAAL [MR-NS3596-NS4A1]"
endpoint_value = 148

[[record]]
sequence_text = "RPEADKVAAI [FSS/MR-NS3492-501]"
endpoint_value = 157

[[record]]
sequence_text = "GPQRLPVPV [FSS/MR-NS199-107]"
endpoint_value = 103

[[record]]
sequence_text = "LPEIVREAI [FSS/MR-NS3188-196]"
endpoint_value = 179

[[record]]
sequence_text = "RVIDSRRCL [FSS/MR-NS3405-413]"
endpoint_value = 718

[[record]]
sequence_text = "GPMPVTHASA [FSS/MR-NS3427-436]"
endpoint_value = 204

[[record]]
sequence_text = "TPHWNNKEAL [FSS/MR-E233-242]"
endpoint_value = 218

[[record]]
sequence_text = "RPALLVSFIF [FSS/MR-NS2A75-84]"
endpoint_value = 582

[[record]]
sequence_text = "RPGAFCIKVL [FSS/MR-NS4B426-435]"
endpoint_value = 1362

[[record]]
sequence_text = "VPTGRTTVV (VPTGRTTW) [FSS/MR-NS5539-546]"
endpoint_value = 121

[[record]]
sequence_text = "TPLTLIVAIIL [FSS/MR-NS4B105-115]"
endpoint_value = 163

[[record]]
sequence_text = "RPRTTVVAENI [FSS/MR-NS5605-614]"
endpoint_value = 641

[[record]]
sequence_text = "RPYKAAAAQL [FSS/MR-NS4A36-45]"
endpoint_value = 120

[[record]]
sequence_text = "SPRLDVAL [FSS/MR-NS2B68-75]"
endpoint_value = 993

[[record]]
sequence_text = "RPRVCTKEEF [FSS/MR-NS5140-149]"
endpoint_value = 311

[[record]]
sequence_text = "KPRWMDARV [FSS/MR-NS3574-582]"
endpoint_value = 1095

[[record]]
sequence_text = "KPTVDIEL [FSS/MR-E38-45]"
endpoint_value = 103

[[record]]
sequence_text = "VPRTDNIAL [MR-NS2A133-141]"
endpoint_value = 776

[[record]]
sequence_text = "RPAEGGKTVM [MR-NS5332-341]"
endpoint_value = 277

[[record]]
sequence_text = "VVMILGGFSM [MR-NS2A31-40]"
endpoint_value = 106

[[record]]
sequence_text = "SPQDNQMAI [FSS/MR-NS4A125-133]"
endpoint_value = 159

[[record]]
sequence_text = "RVCSDHAAL [FSS/MR-NS3581-589]"
endpoint_value = 411

[[record]]
sequence_text = "SPNKYVVNSSTA [FSS/MR-NS4B210-220]"
endpoint_value = 195

[[record]]
sequence_text = "LPILAALTPL [MR-NS2A141-150]"
endpoint_value = 540

[[record]]
sequence_text = "SPRAEATL [FSS/MR-E173-180]"
endpoint_value = 108

[[record]]
sequence_text = "LPSHSTRKL [FSS/MR-M4-12]"
endpoint_value = 398

[[record]]
sequence_text = "GPCKVPAQMAV [FSS-E337-347]"
endpoint_value = 271

